biological target: RIPK2 enzyme (Homo sapiens, UniProt O43353); construct: purchased Carna 09-128; assay: RIPK2 inhibition (ADP-Glo Kinase Assay); assay type: biochemical; conditions: RIPK2 5 nM, ATP 150 μM, MBP substrate, read-out: RIPK2 IC50
Sequence (O43353 1-299 limits assumed): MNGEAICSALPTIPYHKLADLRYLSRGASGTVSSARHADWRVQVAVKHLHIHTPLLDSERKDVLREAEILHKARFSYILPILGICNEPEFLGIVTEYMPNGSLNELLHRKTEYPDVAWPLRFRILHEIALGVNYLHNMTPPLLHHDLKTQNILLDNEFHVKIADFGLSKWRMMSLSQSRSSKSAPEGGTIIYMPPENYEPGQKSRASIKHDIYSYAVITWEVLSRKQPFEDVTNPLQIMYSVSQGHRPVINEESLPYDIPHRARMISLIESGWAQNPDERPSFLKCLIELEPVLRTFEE
Kindly supply the reported IC50 values for the records listed here.

CC(C)(C)n1cc(NC(=O)Cc2ccc(Oc3ccnc4ccc(N5CCNCC5=O)cc34)cc2F)cn1 [Compound 155] : 2.5 nM
Cc1cc(CC(=O)Nc2cnn(C(C)(C)C)c2)ccc1Oc1ccnc2ccc(OC3CCN(C4COC4)CC3)cc12 [Compound 96] : < 2.5 nM
COc1ccc2ncnc(Oc3cnc(CC(=O)Nc4cc(C(C)(C)C)ncn4)c(F)c3)c2c1 [Compound 33] : 85.4 nM
Cc1cc(CC(=O)Nc2cnn(C(C)(C)C)c2)cc(C)c1Oc1ccnc2cc(F)c(C(N)=O)cc12 [Compound 581] : < 2.5 nM
CC(C)(C)n1cc(NC(=O)Cc2ccc(Oc3ccnc4ccc(OC5CCNCC5)cc34)c(F)c2)cn1 [Compound 161] : < 2.5 nM
Cc1cc(CC(=O)Nc2cnn(C(C)C(F)(F)F)c2)ccc1Oc1ccnc2ccc(S(C)(=O)=O)cc12 (single isomer, unassigned) [Compound 594] : < 2.5 nM
Cc1cc(CC(=O)Nc2cnn(C(C)(C)C)c2)ccc1Oc1ccnc2ccc(N(C)S(C)(=O)=O)cc12 [Compound 265] : < 2.5 nM
CNC(=O)C(F)(F)c1ccc2nccc(Oc3cc(F)c(CC(=O)Nc4cnn(C(C)(C)C)c4)cc3C)c2c1 [Compound 573] : < 2.5 nM
CN1CC(Oc2ccc3ncnc(Oc4ccc(CC(=O)Nc5cnn(C(C)(C)C)c5)c(F)c4)c3c2)C1 [Compound 18] : 7.9 nM
Cc1cc(CC(=O)Nc2cc(C(C)(C)C)n[nH]2)ccc1Oc1ccnc2ccc(S(C)(=N)=O)cc12 (stereo not drawn) [Compound 88] : < 2.5 nM

Give IC50 for all compounds that follow.
1. Cc1cc(CC(=O)Nc2cnn(C(C)(C)C)c2)ccc1Oc1ccnc2ccc(CN3CCNCC3)cc12 [Compound 252]
2. CC(C)(C)n1cc(NC(=O)Cc2ccc(Oc3ccnc4ccc(OC5CCNCC5)cc34)cc2F)cn1 [Compound 81]
3. Cc1cc(CC(=O)Nc2cnn(C(C)(C)C)c2)ccc1Oc1ccnc2ccc(S(=N)(=O)C3CCC3)cc12 (single isomer, unassigned) [Compound 552]
4. Cc1c(CC(=O)Nc2cnn(C(C)(C)C)c2)ccc(Oc2ccnc3ccc(S(C)(=O)=O)cc23)c1C [Compound 518]
5. [2H]C([2H])([2H])NC(=O)c1ccc2nccc(Oc3c(C)cc(CC(=O)Nc4cnn(C56CC(C5)C6)c4)cc3C)c2c1 [Compound 589]
6. [2H]C([2H])([2H])C(n1cc(NC(=O)Cc2cc(C)c(Oc3ccnc4cc(F)c(C(N)=O)cc34)c(F)c2)cn1)(C([2H])([2H])[2H])C([2H])([2H])[2H] [Compound 608]

Solution:
1: < 2.5 nM; 2: < 2.5 nM; 3: < 2.5 nM; 4: < 2.5 nM; 5: < 2.5 nM; 6: 2.5 nM
